Target: T1, murine BACE1 ECD
T1 construct: analyte of the Octet assay (200 nM) and enzyme of the first short substrate assay
T1 sequence (single chain, as listed by the source limits assumed): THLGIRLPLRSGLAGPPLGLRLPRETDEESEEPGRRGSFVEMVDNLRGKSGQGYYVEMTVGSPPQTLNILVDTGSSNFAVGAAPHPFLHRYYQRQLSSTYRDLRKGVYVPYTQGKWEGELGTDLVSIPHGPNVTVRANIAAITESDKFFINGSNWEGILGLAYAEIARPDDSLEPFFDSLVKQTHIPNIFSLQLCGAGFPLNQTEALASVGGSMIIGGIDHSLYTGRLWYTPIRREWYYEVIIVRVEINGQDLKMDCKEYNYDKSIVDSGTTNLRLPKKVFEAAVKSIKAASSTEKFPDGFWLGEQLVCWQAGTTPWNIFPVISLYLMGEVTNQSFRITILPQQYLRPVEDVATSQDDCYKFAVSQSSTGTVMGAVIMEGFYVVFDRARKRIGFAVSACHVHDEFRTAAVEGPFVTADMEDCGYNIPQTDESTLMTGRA
Experiment: Octet, pH 5.0
measured-endpoint: Kd

{"columns": ["binder", "test-result"],
 "data": [
  ["6313 (antibody, V domains shown, anti-BACE1 IgG) VH: QLQLQESGPGLVKPSETLSLTCTVSGGSISRGSYYWGWIRQPPGKGLEWIGMIYYSGSTWYNPSLKSRVTISVDTSKNQFSLKLSSVTAADTAVYYCARVGHGVSYFDLWGRGTLVTVSS VL: EIVLTQSPATLSLSPGERATLSCRASQSVSSYLAWYQQKPGQAPRLLIYDASNRATGIPARFSGSGSGTDFTLTISSLEPEDFAVYYCQQAYVWPPRTFGGGTKVEIK", "< 0.24 nM"],
  ["6315 (antibody, V domains shown, anti-BACE1 IgG) VH: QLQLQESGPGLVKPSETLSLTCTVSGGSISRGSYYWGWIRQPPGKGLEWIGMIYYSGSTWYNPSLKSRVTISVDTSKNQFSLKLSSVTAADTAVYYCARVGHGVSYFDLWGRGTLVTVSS VL: EIVLTQSPATLSLSPGERATLSCRASQSVSSYLAWYQQKPGQAPRLLIYDASKRATGIPARFSGSGSGTDFTLTISSLEPEDFAVYYCQQSLVWPPRTFGGGAKVEIK", "< 0.25 nM"],
  ["6308 (antibody, V domains shown, anti-BACE1 IgG) VH: QLQLQESGPGLVKPSETLSLTCTVSGGSISWSSYYWSWIRQPPGKGLEWIGSIYRSGRTYYNPSLKSRVTISVDTSKNQFSLKLSSVTAADTAVYYCARVGHGINYFDLWGRGTLVTVSS VL: EIVLTQSPATLSLSPGERATLSCRASQSVSSYLAWYQQKPGQAPRLLIYDASKRATGIPARFSGSGSGTDFTLTISSLEPEDFAVYYCQQSLVWPPRTFGGGTKVEIK", "< 0.17 nM"]
]}

Data request: # Kd lookup, item 6309 (antibody, V domains shown, anti-BACE1 IgG) VH: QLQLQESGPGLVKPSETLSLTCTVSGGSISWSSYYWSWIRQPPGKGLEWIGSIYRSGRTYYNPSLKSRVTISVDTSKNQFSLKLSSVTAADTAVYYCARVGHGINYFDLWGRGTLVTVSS VL: EIVLTQSPATLSLSPGERATLSCRASQSVSSYLAWYQQKPGQAPRLLIYDASNRATGIPARFSGSGSGTDFTLTISSLEPEDFAVYYCQQSITWPPRTFGGGTKVEIK
Data returned: 0.37 nM
